System: HepG 2.2.15
Measurement Description: Cytotoxicity, neutral red dye uptake
Measurement Parameters: Table 5; 2-fold reduction in neutral red dye uptake; value for the drug named; >1000 = highest concentration tested
Description: Cytotoxicity analyses were also performed in order to assess whether any observed antiviral effects were due to a general effect on cell viability. This analysis was performed on 96-well plates seeded at the same time and with the identical pool of stock cells used for the antiviral assay described in Example 1. […] The absorbance of internalized dye at 510 nm (A510) was used for quantitative analysis. […]
Recorded Endpoint: CC50

IN: Fill in the blank: the reported CC50 of CCCC(=O)O[C@H]1CN2CC[C@H](O)[C@@H]2[C@@H](O)[C@@H]1O is ____.
OUT: > 1000 µM
